Here the recorded viability at 48 h, 26 µM is given for each entry.
method description: Cytotoxicity against LPS/IFNgamma-stimulated mouse J774A1 cells assessed as cell viability at 26 uM after 48 hrs by MTT method (reference value: 100 +/- 1.1%)
Type: cell-based, J774.A1
stated conditions: read-out: Activity
Give just the number in %; leave the unit off.

The cases that follow already have their viability at 48 h, 26 µM on record.
CO[C@H]1O[C@H](COc2ccc(-c3coc4cc(OC[C@H]5O[C@H](OC)[C@H](O)[C@@H](O)[C@@H]5O)cc(O)c4c3=O)cc2)[C@@H](O)[C@H](O)[C@H]1O : 94.8
CO[C@H]1O[C@H](COc2cc(O)c3c(=O)c(-c4ccc(O)cc4)coc3c2)[C@@H](OC(C)=O)[C@H](OC(C)=O)[C@H]1OC(C)=O : 87.4
CC1(C)O[C@H]2[C@@H](O1)[C@@H](COc1cc(O)c3c(=O)c(-c4ccc(O)cc4)coc3c1)O[C@@H]1OC(C)(C)O[C@@H]12 : 30.3
CO[C@H]1O[C@H](COc2cc(O)c3c(=O)c(-c4ccc(O)cc4)coc3c2)[C@@H](O)[C@H](O)[C@H]1O : 44.9
CC1(C)O[C@H]2[C@@H](O1)[C@@H](COc1ccc(-c3coc4cc(OC[C@H]5O[C@@H]6OC(C)(C)O[C@@H]6[C@H]6OC(C)(C)O[C@H]65)cc(O)c4c3=O)cc1)O[C@@H]1OC(C)(C)O[C@@H]12 : 83.6

Recorded viability at 48 h, 26 µM for O=c1c(-c2ccc(O)cc2)coc2cc(OC[C@H]3O[C@H](O)[C@H](O)[C@@H](O)[C@H]3O)cc(O)c12 , please?
88.9

Recorded viability at 48 h, 26 µM for CO[C@H]1O[C@H](COc2ccc(-c3coc4cc(OC[C@H]5O[C@H](OC)[C@H](OC(C)=O)[C@@H](OC(C)=O)[C@@H]5OC(C)=O)cc(O)c4c3=O)cc2)[C@@H](OC(C)=O)[C@H](OC(C)=O)[C@H]1OC(C)=O , please?
87.9

Recorded viability at 48 h, 26 µM for O=c1c(-c2ccc(O)cc2)coc2cc(O)cc(O)c12 [GENISTEIN] , please?
110

====

method description: Cytotoxicity against LPS/IFNgamma-stimulated mouse RAW264.7 cells assessed as cell viability at 13 uM after 48 hrs by MTT method (reference value: 100 +/- 1.8%)
Assay type: cell-based
stated conditions: LPS/IFNgamma-stimulated RAW264.7 cells, read-out: Activity
reported metric: viability at 48 h, 13 µM (%)
Give just the number in %; leave the unit off.

Recorded viability at 48 h, 13 µM for CO[C@H]1O[C@H](COc2cc(O)c3c(=O)c(-c4ccc(O)cc4)coc3c2)[C@@H](OC(C)=O)[C@H](OC(C)=O)[C@H]1OC(C)=O , please?
104

Recorded viability at 48 h, 13 µM for O=c1c(-c2ccc(O)cc2)coc2cc(OC[C@H]3O[C@H](O)[C@H](O)[C@@H](O)[C@H]3O)cc(O)c12 , please?
98.2

Recorded viability at 48 h, 13 µM for CO[C@H]1O[C@H](COc2ccc(-c3coc4cc(OC[C@H]5O[C@H](OC)[C@H](OC(C)=O)[C@@H](OC(C)=O)[C@@H]5OC(C)=O)cc(O)c4c3=O)cc2)[C@@H](OC(C)=O)[C@H](OC(C)=O)[C@H]1OC(C)=O , please?
98.4

Recorded viability at 48 h, 13 µM for CC1(C)O[C@H]2[C@@H](O1)[C@@H](COc1cc(O)c3c(=O)c(-c4ccc(O)cc4)coc3c1)O[C@@H]1OC(C)(C)O[C@@H]12 , please?
88.1

Recorded viability at 48 h, 13 µM for CO[C@H]1O[C@H](COc2ccc(-c3coc4cc(OC[C@H]5O[C@H](OC)[C@H](O)[C@@H](O)[C@@H]5O)cc(O)c4c3=O)cc2)[C@@H](O)[C@H](O)[C@H]1O , please?
99.2

The measurements presented in this section are drawn from ChEMBL document CHEMBL3351950.
